Biological target: Botulinum neurotoxin type A (Clostridium botulinum, UniProt P0DPI0)
Sequence (P0DPI0 2-448 limits assumed): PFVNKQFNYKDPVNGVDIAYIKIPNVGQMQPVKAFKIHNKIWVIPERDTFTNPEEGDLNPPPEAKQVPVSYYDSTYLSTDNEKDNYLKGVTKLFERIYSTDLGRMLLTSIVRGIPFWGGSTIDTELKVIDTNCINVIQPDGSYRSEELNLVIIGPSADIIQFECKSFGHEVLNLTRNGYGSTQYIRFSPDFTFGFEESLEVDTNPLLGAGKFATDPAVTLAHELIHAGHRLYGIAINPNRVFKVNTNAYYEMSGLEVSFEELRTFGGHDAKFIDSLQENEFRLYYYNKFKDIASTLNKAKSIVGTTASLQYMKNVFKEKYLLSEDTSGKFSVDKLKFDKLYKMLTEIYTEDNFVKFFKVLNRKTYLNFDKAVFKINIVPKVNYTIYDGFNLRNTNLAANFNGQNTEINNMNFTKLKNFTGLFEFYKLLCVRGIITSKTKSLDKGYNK
measured.quantity: Ki (µM)
Unit µM implied. Number only.

Under Botulinum neurotoxin type A (Clostridium botulinum, UniProt P0DPI0): Ki value of COC(=O)c1ccc(O)c2nc3c(C=O)c(O)cc(O)c3nc12 ?
25
